- target: CAVI (Homo sapiens)
- Sequence (P23280 18-308): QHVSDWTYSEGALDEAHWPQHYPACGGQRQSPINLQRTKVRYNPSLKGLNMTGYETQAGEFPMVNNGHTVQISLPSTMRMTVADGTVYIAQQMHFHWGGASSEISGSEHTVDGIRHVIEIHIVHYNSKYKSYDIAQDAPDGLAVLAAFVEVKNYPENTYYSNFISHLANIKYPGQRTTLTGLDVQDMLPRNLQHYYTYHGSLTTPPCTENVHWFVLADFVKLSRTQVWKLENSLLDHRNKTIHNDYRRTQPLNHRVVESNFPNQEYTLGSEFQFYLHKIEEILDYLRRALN
- protocol: fluorescent thermal shift assay (FTSA), CAVI
- Assay type: binding
- appliedConditions: converted from Kd_obs, 37 °C, pH 7.0, FTSA
Response key: Criterion met means ΔGobs CAVI >= -9 kcal/mol; Criterion not met means ΔGobs CAVI < -9 kcal/mol.

Enquiry: Decide: ΔGobs CAVI of `COC(=O)c1cc(S(N)(=O)=O)c(Cl)cc1S(=O)(=O)Cc1ccccc1` >= -9 kcal/mol?
Return: Criterion not met

Enquiry: Reported ΔGobs CAVI at or above -9 kcal/mol? `COC(=O)c1cc(S(N)(=O)=O)c(Cl)cc1S(=O)(=O)c1cccc2ccccc12`
Return: Criterion not met

Enquiry: Decide: is the reported value of ΔGobs CAVI for `COC(=O)c1cc(S(N)(=O)=O)c(Cl)cc1SCc1ccccc1` equal to or greater than -9 kcal/mol?
Return: Criterion not met

Enquiry: Record `COC(=O)c1cc(S(N)(=O)=O)c(Cl)cc1SC1CCCCC1` ; criterion: ΔGobs CAVI no lower than -9 kcal/mol. Met?
Return: Criterion not met

Enquiry: Threshold query (ΔGobs CAVI >= -9 kcal/mol) on `COC(=O)c1cc(S(N)(=O)=O)c(Cl)cc1SCCc1ccccc1`
Return: Criterion met

Enquiry: State whether the measured ΔGobs CAVI reaches -9 kcal/mol, counting equality as reaching it, for `COC(=O)c1cc(S(N)(=O)=O)c(S(=O)(=O)CCc2ccccc2)cc1Cl`
Return: Criterion met

Enquiry: Is ΔGobs CAVI at least -9 kcal/mol? Consider `COC(=O)c1cc(S(N)(=O)=O)c(Cl)cc1S(=O)(=O)C1CCCCC1`
Return: Criterion not met

Enquiry: Is it the case that `COC(=O)c1cc(S(N)(=O)=O)c(Cl)cc1S(=O)(=O)c1ccccc1` has ΔGobs CAVI reaching or exceeding -9 kcal/mol?
Return: Criterion not met

Enquiry: Answer whether ΔGobs CAVI of `COC(=O)c1cc(S(N)(=O)=O)c(S(=O)(=O)Cc2ccccc2)cc1Cl` is greater than or equal to -9 kcal/mol.
Return: Criterion met

Enquiry: ΔGobs CAVI >= -9 kcal/mol for `COC(=O)c1cc(S(N)(=O)=O)c(S(=O)(=O)C2CCCCC2)cc1Cl` ?
Return: Criterion met

Enquiry: Given COC(=O)c1cc(S(N)(=O)=O)c(Br)cc1Br [Compound 2, Methyl 2,4-dibromo-5-sulfamoyl-benzoate] , state whether its ΔGobs CAVI is at least -9 kcal/mol.
Return: Criterion not met

Enquiry: Reported ΔGobs CAVI at or above -9 kcal/mol? `COC(=O)c1cc(S(N)(=O)=O)c(Cl)cc1Sc1ccccc1`
Return: Criterion not met

Enquiry: Reported ΔGobs CAVI at or above -9 kcal/mol? COC(=O)c1cc(S(N)(=O)=O)c(Br)cc1S(=O)(=O)c1ccccc1 [Compound 10a]
Return: Criterion not met

Enquiry: Check if ΔGobs CAVI >= -9 kcal/mol (inclusive). Item: COC(=O)c1cc(S(N)(=O)=O)c(Cl)cc1Cl [Compound 1, Methyl 2,4-dichloro-5-sulfamoyl-benzoate]
Return: Criterion not met

Enquiry: Decide: is the reported value of ΔGobs CAVI for `COC(=O)c1cc(S(N)(=O)=O)c(Cl)cc1S(=O)(=O)CCc1ccccc1` equal to or greater than -9 kcal/mol?
Return: Criterion not met
